Experimental Target: Cytochrome P450 1A2 (Homo sapiens)
Assay Summary: Cytochrome panel assay with activity outcomes; on activity, negative = inhibition: on the % scale 0 is the no-effect control and ±100 the full control effect
Test Parameters: recombinant CYP, pro-luciferin dealkylation, luminescence, p450-cyp1a2; series mostly up to 57.1 µM
In all, about 16,000 compounds went through this assay and about 5,700 (36%) were called active. About 24% were inconclusive and are not listed. The list shows a part of the results.
Property: activity, negative = inhibition

Entry COC(=O)C[C@@H]1O[C@H]1[C@H](C)[C@@H](OC)C(C)C under Cytochrome P450 1A2 (Homo sapiens) had activity, negative = inhibition of -6.59% [at 11.4 µM] (inactive)

Entry N[C@@H](CSCc1ccc(I)cc1)C(=O)O under Cytochrome P450 1A2 (Homo sapiens) had activity, negative = inhibition of -12% [at 2.29 µM] (inactive)

Entry O=C(O)[C@@H]1[C@@H]2C[C@@H]3[C@@H](OC(=O)[C@@H]31)[C@H]2Br under Cytochrome P450 1A2 (Homo sapiens) had activity, negative = inhibition of -4.92% [at 11.4 µM] (inactive)

Entry O=C(NCCC[N+]1=CC=N[C@H]1c1ccccc1)N1CCCc2nc(-c3ccc(Br)cc3)ccc21 under Cytochrome P450 1A2 (Homo sapiens) had activity, negative = inhibition of 7.37% [at 11.4 µM] (inactive)

Entry O=P(O)(CCP(=O)(O)c1ccccc1)c1ccccc1 under Cytochrome P450 1A2 (Homo sapiens) had activity, negative = inhibition of -14.2% [at 11.4 µM] (inactive)

Entry COC(=O)[C@H](C)NC(=O)[C@@H](C)CO under Cytochrome P450 1A2 (Homo sapiens) had activity, negative = inhibition of -7.75% [at 11.4 µM] (inactive)

Entry O=C(O)[C@@H]1CS[C@@]2(CCCN(Cc3ccccc3)C2)N1 under Cytochrome P450 1A2 (Homo sapiens) had activity, negative = inhibition of -12% [at 2.29 µM] (inactive)

Entry CO[C@H]1COC(=O)CCC[C@H](C)[C@@H](OC)COC(=O)C/C=C\[C@@H]1C under Cytochrome P450 1A2 (Homo sapiens) had activity, negative = inhibition of -4.49% [at 11.4 µM] (inactive)

Entry Cc1ccc(C)n1C(Cc1ccccc1)C(=O)O (stereo unspecified) under Cytochrome P450 1A2 (Homo sapiens) had activity, negative = inhibition of 6.11% [at 11.4 µM] (inactive)

Entry CN(C)CCCn1cnc2cc(Cl)c(Cl)cc21 under Cytochrome P450 1A2 (Homo sapiens) had activity, negative = inhibition of -19.9% [at 2.29 µM] (inactive)

Entry Cc1ccc(N=Nc2c(O)c3ccccc3[nH]c2=O)c(S(=O)(=O)N(C)C)c1 under Cytochrome P450 1A2 (Homo sapiens) had activity, negative = inhibition of -14.6% [at 2.29 µM] (inactive)

---

Experimental Target: Cytochrome P450 1A2 (Homo sapiens) (UniProt P05177)
Sequence (P05177 whole entry, looked up): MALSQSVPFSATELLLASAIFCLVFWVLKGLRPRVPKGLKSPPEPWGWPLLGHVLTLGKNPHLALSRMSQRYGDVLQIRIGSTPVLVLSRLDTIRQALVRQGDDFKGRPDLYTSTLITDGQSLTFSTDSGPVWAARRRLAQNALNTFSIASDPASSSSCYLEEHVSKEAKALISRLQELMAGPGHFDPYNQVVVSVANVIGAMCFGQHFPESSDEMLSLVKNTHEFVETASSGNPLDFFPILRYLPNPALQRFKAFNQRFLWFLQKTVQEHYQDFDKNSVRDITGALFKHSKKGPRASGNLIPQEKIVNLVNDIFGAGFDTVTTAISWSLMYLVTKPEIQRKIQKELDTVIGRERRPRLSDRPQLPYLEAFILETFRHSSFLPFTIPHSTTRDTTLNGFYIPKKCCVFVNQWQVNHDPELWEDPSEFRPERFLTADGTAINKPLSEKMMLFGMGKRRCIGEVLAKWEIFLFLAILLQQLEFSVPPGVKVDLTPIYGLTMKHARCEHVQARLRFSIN
Assay Summary: Cytochrome panel assay with activity outcomes
Test Parameters: recombinant CYP, pro-luciferin dealkylation, luminescence, p450-cyp1a2; series mostly up to 57.1 µM
Procedure: The P450 gene superfamily is involved in the metabolism and clearance of xenobiotics. This assay used various human CYP P450 isozymes to measure the dealkylation of various pro-luciferin substrates to luciferin. The luciferin is then measured by luminescence after the addition of a luciferase detection reagent. […] Inhibitors and some substrates limit the production of luciferin, and decrease measured luminescence. […] 8, Detection, 1 sec, ViewLux luminescent read […]
The whole screen tested about 16,000 compounds, of which about 5,700 (36%) were called active. Roughly 24% stayed inconclusive and do not appear here. Calls come from the whole dose curve; as a rule, active = well fitted curve in the direction sought with a large enough effect; inconclusive = small, poorly fitted or top-dose-only effect, or effect the other way; inactive = no such curve, though single readings can be large or run the other way. This is one part of the list.
Just give me one of these, please: yes for active, no for inactive

[Q] Each compound tested received a call. Report the one for O=S(=O)(O)c1nc2ccccc2n1Cc1ccccc1 .
[A] no

[Q] Each compound tested received a call. Report the one for CCNc1ncc2ncc(=O)n(Cc3cccs3)c2n1 .
[A] yes

[Q] Each compound tested received a call. Report the one for CC(C)OCCCNC(=O)C1CC(=O)N(C2CCCCCCC2)C1 (stereo unspecified) .
[A] no

[Q] Each compound tested received a call. Report the one for Cc1cccc(CNc2cc(-c3ccccc3Cl)ncn2)c1 .
[A] yes

[Q] Each compound tested received a call. Report the one for Cc1cc(C)cc(-n2c(O)c(C=NC3CCS(=O)(=O)C3)c3ccccc3c2=O)c1 (stereo unspecified) .
[A] no

[Q] Each compound tested received a call. Report the one for CCCS(=O)(=O)N1CCCC(C(=O)NCCN(C)Cc2ccccc2)C1 (stereo unspecified) .
[A] no

[Q] Each compound tested received a call. Report the one for COc1ccc(C2CC(C(F)(F)F)n3nc(C(=O)N(C)Cc4cn(C)nc4C)c(Cl)c3N2)cc1 (stereo unspecified) .
[A] no

[Q] Each compound tested received a call. Report the one for c1ccc(C2=NN[C@@H]3c4ccccc4-c4ccccc4N3C2)cc1 .
[A] yes

[Q] Each compound tested received a call. Report the one for COc1ccc(N2C(=O)NC3CC2(C)Oc2ccccc23)cc1OC (stereo unspecified) .
[A] no

[Q] Each compound tested received a call. Report the one for CCn1c(=O)cc(SCC(=O)Nc2cc(OC)c(OC)c(OC)c2)c2ccccc21 .
[A] no

[Q] Each compound tested received a call. Report the one for O=C(Nc1ccccc1C(=O)NCC1CCCO1)c1ccc(Cl)cc1Cl (stereo unspecified) .
[A] yes

[Q] Each compound tested received a call. Report the one for CC(=O)Nc1cc(C(F)(F)F)ccc1Oc1cccc(Br)c1 .
[A] yes

[Q] Each compound tested received a call. Report the one for Cc1ccc(-c2nnn(CC(=O)N(c3ccccc3)C(C(=O)NCC3CCCO3)c3ccc(Cl)cc3)n2)cc1 (stereo unspecified) .
[A] no

[Q] Each compound tested received a call. Report the one for Nc1[nH]nc2nc3ccccc3nc12 .
[A] yes

[Q] Each compound tested received a call. Report the one for O=C(Nc1cc(-c2nc3ccccc3s2)ccc1Cl)c1ccc2c(c1)OCO2 .
[A] yes

[Q] Each compound tested received a call. Report the one for CC1=NN(c2ccccc2)C(=O)C1 .
[A] yes

[Q] Each compound tested received a call. Report the one for COCCCNC(=O)C1CC(=O)N(CCc2ccc(OC)c(OC)c2)C1 (stereo unspecified) .
[A] no

[Q] Each compound tested received a call. Report the one for C=CCn1c(NCc2ccccc2)nc2ccccc21 .
[A] yes

[Q] Each compound tested received a call. Report the one for CC(C)CN1CCC2(CC1)CCN(C(=O)c1cccn1C)CC2 .
[A] no

[Q] Each compound tested received a call. Report the one for Cc1cc(C(C)(C)C)cc(CNC2CCCCC2)c1O .
[A] yes

[Q] Each compound tested received a call. Report the one for CCOc1ccc(C(=O)Cc2cc(OC)c(OC)cc2[N+](=O)[O-])cc1 .
[A] no

[Q] Each compound tested received a call. Report the one for CC1=c2c(oc3cc(O)c(Nc4c(C)cc(O)cc4O)c(C)c23)=CC(=O)C1=Nc1c(C)cc(O)cc1O .
[A] yes

[Q] Each compound tested received a call. Report the one for O=C(O)c1ccccc1N/N=C\c1ccnc2ccccc12 .
[A] yes

[Q] Each compound tested received a call. Report the one for COc1ccc(OC)c(NC(=O)c2cc3n(n2)C(C(F)(F)F)CC(c2ccc4c(c2)OCO4)N3)c1 (stereo unspecified) .
[A] yes

[Q] Each compound tested received a call. Report the one for CCOC(=O)c1c(-c2ccccc2)nc2ccc(Cl)cn12 .
[A] yes

[Q] Each compound tested received a call. Report the one for CC(SCc1cn2cc(Cl)ccc2n1)C(=O)O (stereo unspecified) .
[A] no

[Q] Each compound tested received a call. Report the one for CON/C=C(\C=Nc1ccccc1)c1ncc(C(F)(F)F)cc1Cl .
[A] yes

[Q] Each compound tested received a call. Report the one for COc1ccccc1-c1cc(NCc2cccc(C)c2)ncn1 .
[A] yes

[Q] Each compound tested received a call. Report the one for CC(C)n1c(=O)c2c(O)cc(=O)oc2c2ccccc21 .
[A] yes

[Q] Each compound tested received a call. Report the one for O=C(O)CSc1sc(=S)sc1SCC(=O)O .
[A] yes

[Q] Each compound tested received a call. Report the one for O=C(Nc1cccc(-c2nc3ccccc3s2)c1)c1ccc2c(c1)OCO2 .
[A] yes

[Q] Each compound tested received a call. Report the one for CCNc1ncc2nc(-c3cc(F)cc(F)c3)c(=O)n(Cc3cccs3)c2n1 .
[A] yes

[Q] Each compound tested received a call. Report the one for CCOC(=O)CNc1c(-c2ccccc2)nc2ccc(Cl)cn12 .
[A] yes

[Q] Each compound tested received a call. Report the one for CC(=O)N1CCC2(CC1)CN(c1ccccn1)C2 .
[A] no

[Q] Each compound tested received a call. Report the one for CN(C)S(=O)(=O)Oc1ccccc1C(=O)Nc1cccc(C(F)(F)F)c1 .
[A] yes

[Q] Each compound tested received a call. Report the one for O=C(c1cnccn1)N1CCC2(CC1)CCN(c1ncccn1)CC2 .
[A] no

[Q] Each compound tested received a call. Report the one for CC(C)NC(=O)N1CC[C@@]2(CCCN(S(=O)(=O)c3ccccc3)C2)C1 .
[A] no

[Q] Each compound tested received a call. Report the one for O=C(N/N=C/c1cccc(C(F)(F)F)c1)C1CCN(c2ncc(C(F)(F)F)cc2Cl)CC1 .
[A] no

[Q] Each compound tested received a call. Report the one for C=CCC(C)(NCc1ccccc1)c1ccco1 (stereo unspecified) .
[A] no

[Q] Each compound tested received a call. Report the one for CCn1c2ccccc2c2cc(NC(=O)CSc3nnc(-c4ccc(OC)c(OC)c4)n3N)ccc21 .
[A] yes

[Q] Each compound tested received a call. Report the one for C=CCc1cc(C=O)cc(OC)c1OCc1ccc(Cl)cc1 .
[A] yes

[Q] Each compound tested received a call. Report the one for CN/C(=C\[N+](=O)[O-])NCCSCc1csc(CN(C)C)n1 .
[A] no

[Q] Each compound tested received a call. Report the one for CCn1c2ccccc2c2cc(N=C3SC(CC(=O)Nc4ccccc4OC)C(=O)N3C)ccc21 (stereo unspecified) .
[A] no

[Q] Each compound tested received a call. Report the one for CN1c2ccccc2Oc2c(c(=O)n(C)c(=O)n2C)C1c1cccc([N+](=O)[O-])c1 (stereo unspecified) .
[A] no

[Q] Each compound tested received a call. Report the one for Cc1nnsc1SCC(=O)O .
[A] no

[Q] Each compound tested received a call. Report the one for CC(C)(CO)Cc1cc(C(C)(C)C)c(O)c(C(C)(C)C)c1 .
[A] yes
